# experimental-system: PKAcα (Homo sapiens, UniProt P17612)
# method-summary: FA-based competitive binding/displacement assay (probe ARC-583)
result-type: Kd

Report Kd for NC(=O)CCCCCCCC(=O)N1CCN(c2ncnc3[nH]ccc23)CC1 [Compound 11a, 7DP-Pip-Nda-amide] please.
460 nM

Further, for c1nc(N2CCNCC2)c2cc[nH]c2n1 ?
550 nM
